System: CCRF-CEM
PROTOCOL: NCI tumour cell line growth inhibition, 48 h
The source made the active and inactive calls. Cut-off read from the data, not from the text of the source: active = GI50 up to about 1.1 µM and inactive = higher.
Pick one: True for active, False for inactive

A selection of reference data follows.
{"columns": ["COMPOUND", "ASSIGNED_CATEGORY"],
 "data": [
  ["N#CC(C#N)=C1c2ccccc2C(=NN)c2ccccc21", "False"],
  ["NC(CCC(=O)NC(CSC(=O)N(O)c1ccc(Br)cc1)C(=O)NCC(=O)O)C(=O)O (configuration not stated)", "False"],
  ["O=C1CC2C=CC(O)C(C1)C2 (configuration not stated)", "False"],
  ["COc1ccccc1OCC(COC(=O)Nc1ccc(C)cc1)OC(=O)Nc1ccc(C)cc1 (configuration not stated)", "False"],
  ["O=C(/C=C/c1ccc([N+](=O)[O-])cc1)c1nc2ccccc2[nH]1", "False"],
  ["O=C(Nc1cccc([N+](=O)[O-])c1)/C(=N\\NC(=O)c1ccncc1)c1nc2ccc([N+](=O)[O-])cc2nc1O", "False"],
  ["NC(=O)N/N=C/C(/C=N/NC(N)=O)[N+](=O)[O-]", "False"],
  ["O=c1ss/c(=N\\c2ccccc2)n1-c1ccccc1", "False"]
]}

Entry COc1ccc(C2=NOC(N)(c3ccc(OC)cc3)C2)cc1 (configuration not stated) : call = ? False

Entry CC1(C)[C@@H](Cn2cc(I)c(=O)[nH]c2=O)CC[C@@]1(C)CO : call = ? False

Entry COc1ccc(/C=C/C(=O)c2ccc(Br)cc2)cc1 : call = ? False

Entry C=CCN(C(=O)CNC(=O)C(F)(F)F)c1cc(OCc2ccccc2)c2c(c1)c(C)cn2S(=O)(=O)c1ccccc1 : call = ? True

Entry CN1CCC23c4ccccc4NC1C21CCN(C)C3Nc2ccccc21 : call = ? False

Entry NC1=NCCN1CC(=O)O : call = ? False

----------
Test system: EKVX
PROTOCOL: NCI tumour cell line growth inhibition, 48 h
Activity calls are given as the source filed them. Rule as the data show it: active = GI50 up to about 1.1 µM and inactive = higher.
ATTRIBUTE_MEASURED: GI50

Previously resolved entries follow.
{"columns": ["COMPOUND", "GI50"],
 "data": [
  ["Cc1cc2nc3c(N)nn(CCCN(C)C)c3nc2cc1C", "> 100 µM (inactive)"],
  ["CSc1nc2c3ccccc3ccn2c1C(=O)N/N=C/c1ccccc1", "> 100 µM (inactive)"],
  ["C[N+](C)(N)Cc1nc(-c2ccc(Cl)cc2)no1", "37.7 µM (inactive)"],
  ["O=C1C(Cl)=C(N2CCC[C@@H]2CO)C(=O)c2c(O)ccc(O)c21", "1.87 µM (inactive)"],
  ["CC(NC(=O)OC(C)(C)C)C(=O)C(N)=O (configuration not stated)", "> 100 µM (inactive)"],
  ["CC1=CCN(c2ccccn2)OC1c1ccccc1 (configuration not stated)", "> 100 µM (inactive)"]
]}

Lab note: each compound below needs its GI50 filled in.
1. COc1cc2c(cc1OC)C(CC(=O)NN=C(C)C)NCC2 (configuration not stated)
2. O=C(C(O)c1cn(Cc2ccccc2)c2ccccc12)N1CCCCC1 (configuration not stated)
3. CC(=O)OC1CC2C(C)(C)C(=O)C=C[C@]2(C)C2CCC3(C)C(=CC(=O)C3c3ccoc3)[C@]12C (some centres not stated)
4. O=C1OC(c2ccc(Cl)c3ccccc23)c2ccccc21 (configuration not stated)
5. Oc1ccc(SCc2ccc(NCc3ccccc3)cc2)cc1
6. NS(=O)(=O)OCCCCCCCOS(N)(=O)=O

1: > 100 µM (inactive); 2: 54.6 µM (inactive); 3: 15.7 µM (inactive); 4: > 100 µM (inactive); 5: 19.4 µM (inactive); 6: 272 µM (inactive)
